Biological target: Fibroblast growth factor receptor 2 (Homo sapiens, UniProt P21802)
Sequence (P21802 whole entry): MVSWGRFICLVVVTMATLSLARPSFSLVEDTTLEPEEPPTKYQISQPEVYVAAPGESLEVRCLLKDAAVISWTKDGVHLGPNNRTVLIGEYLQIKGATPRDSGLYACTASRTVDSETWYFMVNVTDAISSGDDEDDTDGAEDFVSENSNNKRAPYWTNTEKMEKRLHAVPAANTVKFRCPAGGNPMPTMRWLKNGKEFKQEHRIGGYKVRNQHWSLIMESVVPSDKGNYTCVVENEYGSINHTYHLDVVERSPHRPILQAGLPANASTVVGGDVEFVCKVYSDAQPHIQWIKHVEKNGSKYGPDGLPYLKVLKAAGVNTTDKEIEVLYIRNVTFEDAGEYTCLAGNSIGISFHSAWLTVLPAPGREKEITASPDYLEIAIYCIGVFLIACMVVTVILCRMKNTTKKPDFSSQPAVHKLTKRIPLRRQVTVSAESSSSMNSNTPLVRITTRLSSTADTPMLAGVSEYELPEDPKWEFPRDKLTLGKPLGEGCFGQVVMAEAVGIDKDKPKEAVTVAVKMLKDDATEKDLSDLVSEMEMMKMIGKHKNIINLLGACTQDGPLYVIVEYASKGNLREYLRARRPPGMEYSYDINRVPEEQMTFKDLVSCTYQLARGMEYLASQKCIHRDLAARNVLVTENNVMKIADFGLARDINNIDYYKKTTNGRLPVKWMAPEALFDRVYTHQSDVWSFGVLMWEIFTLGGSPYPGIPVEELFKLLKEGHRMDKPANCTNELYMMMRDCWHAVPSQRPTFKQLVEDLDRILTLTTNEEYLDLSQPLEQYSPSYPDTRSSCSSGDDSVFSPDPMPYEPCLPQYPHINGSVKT
RECORDED_METRIC: IC50 (nM)
Give bare numbers, in nM.

Report IC50 for Nc1ncc(-c2ccncc2)nc1Nc1ccc2[nH]ccc2c1 please. 120
